test protocol: Human HepG2 cell viability assay in 384 well format
Type: toxicity, cell-based
Design: dose 125 nL, time 70.5 hour; concentration not given beside the values
run conditions: HepG2 cells, read-out: Inhibition
reported endpoint: cytotoxicity at 70.5 h (%)
Respond numerically; units are % and should not be typed.

Prompt: Data request, read-out cytotoxicity at 70.5 h, for `CC(C)OCCS(=O)(=O)N1CCN(Cc2ccco2)CC1`
Response: -4.45

Prompt: Data request, read-out cytotoxicity at 70.5 h, for CS(=O)(=O)NC1CCN(C(=O)CCC2CCCO2)CC1 (configuration not stated)
Response: -0.0133

Prompt: Data request, read-out cytotoxicity at 70.5 h, for Nc1c(Cl)cnn1C1CCN(Cc2ccccc2)C1 (configuration not stated)
Response: -3.84

Prompt: Data request, read-out cytotoxicity at 70.5 h, for `COc1c(NC(=O)N(C)CCOc2ccc(F)cc2)c(C)nn1C`
Response: 2.48

Prompt: Data request, read-out cytotoxicity at 70.5 h, for `COc1ccc2[nH]c3c(N(C)CC4OCCO4)ncnc3c2c1`
Response: 5.81

Prompt: Data request, read-out cytotoxicity at 70.5 h, for CC(C(=O)Nc1ccccn1)n1ccc(C(F)(F)F)n1 (configuration not stated)
Response: -15.3

Prompt: Data request, read-out cytotoxicity at 70.5 h, for O=C1c2ncccc2C(CCO)N1Cc1ccccc1 (configuration not stated)
Response: -3.47

Prompt: Data request, read-out cytotoxicity at 70.5 h, for `O=C(CN1CCc2cncnc2C1)Nc1ccc(Cl)cn1`
Response: 6.59

Prompt: Data request, read-out cytotoxicity at 70.5 h, for Cn1nccc1CCC(=O)N1CCOC(c2cnccn2)C1 (configuration not stated)
Response: -12.6

Prompt: Data request, read-out cytotoxicity at 70.5 h, for `Cc1ccc(NCc2ccc(C#N)cc2)c(CN(C)C)c1`
Response: 15.8

Prompt: Data request, read-out cytotoxicity at 70.5 h, for COCC1CCCCN1C(=O)c1cc(-c2cccc(OC)c2)n[nH]1 (configuration not stated)
Response: -6.73

Prompt: Data request, read-out cytotoxicity at 70.5 h, for `CCc1cc(C(=O)N2CC[C@@H](c3ccc4c(c3)OCO4)[C@H](O)C2)[nH]n1`
Response: 25.7

====

test protocol: Human HepG2 cell viability assay in 384 well format
Type: toxicity, cell-based
Set-up: dose 125 nL, time 70.5 hour; concentration not given beside the values
run conditions: HepG2 cells, read-out: Inhibition
reported endpoint: cytotoxicity at 70.5 h (%)
Respond numerically; units are % and should not be typed.

Prompt: Data request, read-out cytotoxicity at 70.5 h, for O=C(Cc1ccccc1)N1C[C@@H]2OCCN(CC3CCCO3)[C@@H]2C1 (stereo partly specified)
Response: -6.14

Prompt: Data request, read-out cytotoxicity at 70.5 h, for `CCN(Cc1cc(Cl)ccc1OC)Cc1nccn1C`
Response: 12.7

Prompt: Data request, read-out cytotoxicity at 70.5 h, for `COc1ccc(CCN)cc1-c1ccc(C(N)=O)cc1`
Response: -6.83

Prompt: Data request, read-out cytotoxicity at 70.5 h, for `CCOC(=O)C1CCN(C(=O)c2cc(OCC)c3ccoc3c2)CC1`
Response: -10.7

Prompt: Data request, read-out cytotoxicity at 70.5 h, for `CC(C)(C)c1noc(CCC(=O)N2CCN(Cc3ccco3)CC2)n1`
Response: -0.998

Prompt: Data request, read-out cytotoxicity at 70.5 h, for `c1ccc(OCCNc2ncnc3sc4c(c23)CCNC4)cc1`
Response: 1.62

Prompt: Data request, read-out cytotoxicity at 70.5 h, for Cc1nc(C2CCCN(C(=O)COCc3ccccc3)C2)no1 (stereo unspecified)
Response: -12.6

Prompt: Data request, read-out cytotoxicity at 70.5 h, for `COc1cccc(CN(C)C(=O)CCC(=O)c2ccccc2)c1OC`
Response: -9.57

Prompt: Data request, read-out cytotoxicity at 70.5 h, for `Cc1ncsc1CCN(C)C(=O)CN1CCOc2ccccc2C1`
Response: 0.856

Prompt: Data request, read-out cytotoxicity at 70.5 h, for `Cc1ccccc1NC(=O)N1CC[C@@H]2CN(CC(C)C)S(=O)(=O)[C@@H]2CC1`
Response: -9.9

Prompt: Data request, read-out cytotoxicity at 70.5 h, for `Cc1nc(CN2CCN(C(=O)CCc3cccnc3)CC2)no1`
Response: 16.4

====

Field: cytotoxicity at 70.5 h. Provide a value for each of the compounds that follow.
test protocol: Human HepG2 cell viability assay in 384 well format
Assay type: toxicity, cell-based
Parameters: dose 125 nL, time 70.5 hour; concentration not given beside the values
run conditions: HepG2 cells, read-out: Inhibition
Respond numerically; units are % and should not be typed.

Prompt: Data request, read-out cytotoxicity at 70.5 h, for Cc1cc(C(F)F)nn1C(C)C(=O)NCc1ncc[nH]1 (stereo unspecified)
Response: -1.75

Prompt: Data request, read-out cytotoxicity at 70.5 h, for `COc1ccccc1CNc1c(O)c(=O)c1=O`
Response: -7.01

Prompt: Data request, read-out cytotoxicity at 70.5 h, for CC(O)(CN1CCC(O)CC1)c1cccc(C(F)(F)F)c1 (stereo unspecified)
Response: -14.5

Prompt: Data request, read-out cytotoxicity at 70.5 h, for `CN1C(=O)c2ccc(NC(=O)CSc3ccc4c(c3)CCC4)cc2C1=O`
Response: -3.82

Prompt: Data request, read-out cytotoxicity at 70.5 h, for Cc1cnc2n(c1=O)CC(C(=O)Nc1ccccc1Cl)CS2 (stereo unspecified)
Response: -5

Prompt: Data request, read-out cytotoxicity at 70.5 h, for `Nc1ncncc1-c1noc([C@@H]2CCCN2Cc2cccnc2)n1`
Response: -9.55

====

Field: cytotoxicity at 70.5 h. Provide a value for each of the compounds that follow.
test protocol: Human HepG2 cell viability assay in 384 well format
Format: toxicity, cell-based
Parameters: dose 125 nL, time 70.5 hour; concentration not given beside the values
run conditions: HepG2 cells, read-out: Inhibition
Respond numerically; units are % and should not be typed.

Prompt: Data request, read-out cytotoxicity at 70.5 h, for COc1cc(CC2CC(C(N)=O)=NO2)cc2c1OCO2 (stereo unspecified)
Response: -7.88

Prompt: Data request, read-out cytotoxicity at 70.5 h, for `COCCNC(=O)c1ccc2c(=O)n3c(nc2c1)CCN(C)CC3`
Response: 7.41

Prompt: Data request, read-out cytotoxicity at 70.5 h, for `Cc1cc(CN2CC[C@]3(C[C@@H](OCC(=O)N(C)C)CO3)C2)no1`
Response: -6.96

Prompt: Data request, read-out cytotoxicity at 70.5 h, for Cn1ccnc1CN(Cc1cccnc1)CC1CCCO1 (stereo unspecified)
Response: -8.2

Prompt: Data request, read-out cytotoxicity at 70.5 h, for `Cn1cc2ncn([C@H]3CCN(Cc4ccccc4)C3)c(=O)c2n1`
Response: -6.58

Prompt: Data request, read-out cytotoxicity at 70.5 h, for `CS(=O)(=O)N1C[C@@H]2CC[C@H](C1)N(C(=O)CCc1ccsc1)C2`
Response: -2.59

Prompt: Data request, read-out cytotoxicity at 70.5 h, for c1cncc(CN2CCOC(c3ncn4c(C5CC5)cccc34)C2)c1 (stereo unspecified)
Response: -3.57

Prompt: Data request, read-out cytotoxicity at 70.5 h, for `O=C(Nc1ccc(F)c(Br)c1)N1CCCC1`
Response: -1.36

Prompt: Data request, read-out cytotoxicity at 70.5 h, for CN1CCOCC2(CCCN(C(=O)c3ccccc3F)C2)C1 (stereo unspecified)
Response: 13.4

Prompt: Data request, read-out cytotoxicity at 70.5 h, for `Cc1cc(-c2cnn(CCNC(=O)Cc3ccccn3)c2C2CC2)on1`
Response: -3.25

Prompt: Data request, read-out cytotoxicity at 70.5 h, for COCC(O)CN(C)C(=O)NC1CCN(S(C)(=O)=O)CC1 (stereo unspecified)
Response: -7.83
